system_name: 5-hydroxytryptamine receptor 1E (Homo sapiens, UniProt P28566)
Sequence (P28566 whole entry): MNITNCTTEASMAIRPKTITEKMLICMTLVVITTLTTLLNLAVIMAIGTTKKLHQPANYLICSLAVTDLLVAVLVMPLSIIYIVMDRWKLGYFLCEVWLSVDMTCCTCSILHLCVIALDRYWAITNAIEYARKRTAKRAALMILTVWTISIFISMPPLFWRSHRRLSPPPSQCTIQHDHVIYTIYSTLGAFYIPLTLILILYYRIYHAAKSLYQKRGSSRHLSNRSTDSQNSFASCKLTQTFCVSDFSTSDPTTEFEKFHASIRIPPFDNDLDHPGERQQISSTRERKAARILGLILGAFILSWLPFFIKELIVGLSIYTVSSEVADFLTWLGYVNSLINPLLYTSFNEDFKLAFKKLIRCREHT
pKi: −log10 of the molar value.
A collection of molecules and their measured pKi
attribute_measured: pKi

| molecule | relation_sign | assay_result |
| --- | --- | --- |
| CCCN(CCC)C1CCc2cccc(O)c2C1 (configuration not stated) | = | 6.08 |
| COc1cc(CC(C)N)c(OC)cc1Br (configuration not stated) | = | 6.25 |
| NCCc1c[nH]c2ccc(C(N)=O)cc12 [[3H]-5-carboxamidotryptamine] | = | 6.04 |
| CC[C@@H](CO)NC(=O)[C@@H]1C=C2c3cccc4c3c(cn4C)C[C@H]2N(C)C1 | = | 7.23 |
| FC(F)(F)c1cccc(N2CCNCC2)c1 | = | 6.24 |
| CN1C[C@H](C(=O)N[C@]2(C)O[C@@]3(O)[C@@H]4CCCN4C(=O)[C@H](Cc4ccccc4)N3C2=O)C=C2c3cccc4[nH]cc(c34)C[C@H]21 | = | 6.81 |
| O=C(c1ccc(F)cc1)C1CCN(CCn2c(=O)[nH]c3ccccc3c2=O)CC1 | < | 5.00 |
